These data points were gathered from the NIST ThermoML archive (doi:10.1021/je049652j).

Measured molar heat capacity at constant pressure, listed per entry.
# assay_name: molar heat capacity at constant pressure
# experimental_parameters: 353.15 K; 101.33 kPa; Liquid
Express it in J/K/mol; write the number only.

Past entries and their recorded results:
CCCCCCBr :: 237.85
CCCCCCl :: 204.24
CCCCCBr :: 207.05

What value of measured molar heat capacity at constant pressure is listed for CCCCCCCCCl ?
298.14

Entry CCCCCCCl : reported molar heat capacity at constant pressure = ?
235.17

Requested read-out: molar heat capacity at constant pressure. Entry: CCCCCCCCCBr
333.74

Fill in the blank: the reported molar heat capacity at constant pressure of CCCCCCCCCCCl is ____.
362.49

Would you kindly share the measured molar heat capacity at constant pressure for CCCCCl ?
173.09

GET /values?readout=molar heat capacity at constant pressure&item= CCCCBr
175.47

Return reported molar heat capacity at constant pressure; argument: CCCCCCCCl
266.51

Given the compound CCCCCCCCCCBr , what is its reported molar heat capacity at constant pressure?
367.07

Name the recorded molar heat capacity at constant pressure for CCCCCCCBr .
270.03
